- System: Plasmodium yoelii
- procedureDetails: Antimalarial activity against chloroquine-resistant Plasmodium yoelii N-67infected in Swiss Albino mouse assessed as suppression of parasitemia at 100 mg/kg, po once daily for 7 days measured on day 4 post infection
- Assay type: functional
measuredAttribute: inhibition in vivo at 100 mg/kg (%)
Reply with just the number (in %).

{"compound": "CCCCCCCCN(CCCCCCCC)CCC[C@H](C)Nc1ccnc2cc(Cl)ccc12", "measuredAttribute": "inhibition in vivo at 100 mg/kg", "quantitativeReadout": 14.5}

Suppose we examine the compound "CCN(CC)CCC[C@H](C)Nc1ccnc2cc(Cl)ccc12" ; what inhibition in vivo at 100 mg/kg value has been reported? 100

Suppose we examine the compound "C[C@H](CCCN1CCN(C)CC1)Nc1ccnc2cc(Cl)ccc12" ; what inhibition in vivo at 100 mg/kg value has been reported? 100
